System Under Test: Human adenosine A2A receptor (Homo sapiens)
Sequence (P29274 whole entry): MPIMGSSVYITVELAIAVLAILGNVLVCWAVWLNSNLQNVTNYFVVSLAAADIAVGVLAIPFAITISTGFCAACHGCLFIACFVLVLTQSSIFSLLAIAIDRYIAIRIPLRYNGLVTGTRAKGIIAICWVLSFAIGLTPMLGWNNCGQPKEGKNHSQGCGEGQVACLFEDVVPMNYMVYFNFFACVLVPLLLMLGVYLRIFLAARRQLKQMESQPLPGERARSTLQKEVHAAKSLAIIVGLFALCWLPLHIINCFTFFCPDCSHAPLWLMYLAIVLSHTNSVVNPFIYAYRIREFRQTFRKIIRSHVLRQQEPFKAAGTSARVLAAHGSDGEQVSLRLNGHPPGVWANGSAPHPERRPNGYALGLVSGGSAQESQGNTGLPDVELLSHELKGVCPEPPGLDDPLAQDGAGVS
Run Description: Human adenosine A2A receptor calcium flux assay
Assay Context: A2A stable CHO cell strain, antagonist mode against agonist NECA at EC80, FLIPR Fluo-4
Field: label. Allowed values: true (1) (IC50 < 1 nM) or false (0) (IC50 >= 1 nM).

The following molecules have reported results that may help.
>>> print(df.to_string())
                            smiles_notation                         system_under_test  label_class
0  Cc1cc(-c2c(-c3ccccc3)nc(N)n3nc(CC4CC4)nc23)cc(C)n1  Human adenosine A2A receptor (Homo sapiens)    false (0)
1  Cc1cc(-c2c(-c3ccc(F)cc3)nc(N)n3nc(CO[C@H]4CCOC4)nc23)cc(C(F)(F)F)n1  Human adenosine A2A receptor (Homo sapiens)     true (1)
2  Nc1nc(-c2ccccc2)c(-c2ccc3[nH]cnc3c2)c2ncnn12  Human adenosine A2A receptor (Homo sapiens)     true (1)
3  CC(C)c1cc(-c2c(-c3ccccc3)nc(N)n3ncnc23)cc(C(F)(F)F)n1  Human adenosine A2A receptor (Homo sapiens)    false (0)
4  CCc1nc2c(-c3cc(C)nc(C(F)(F)F)c3)c(-c3ccccc3)nc(N)n2n1  Human adenosine A2A receptor (Homo sapiens)    false (0)

is_below(IC50, 1 nM) for Cc1cc(-c2c(-c3ccccc3)nc(N)n3nc(CC4CC4)nc23)cc(C(F)(F)F)n1 ?
false (0)
